Values were extracted from patent US20250154525A1.

# Tested on: Jurkat Cells
# Method notes: GFP plasmid transfection with DOTMA/DOPE plus surface ligand peptide, fluorescent plate reader (Example 1)
# Assay type: cell-based
# Experimental parameters: DOTMA/DOPE + peptide linked to R12 or K16; EF1Alpha eGFP plasmid; 42 hours
Values of Relative Fluorescence of Transfection of Jurkat Cells (RF) greater than or equal to 6000 map to y; values below map to n.

{"columns": ["Substance", "Cat"],
 "data": [
  ["353 (KKQRFRHRNRKGYRSQ) [compound 353]", "y"],
  ["454 (TGLSCLQRFTTM) [compound 454]", "y"],
  ["218 (SPPRRARVT) [compound 218]", "y"],
  ["352 (RIQNLLKITNLRIKFVK) [compound 352]", "n"],
  ["357 (SETTVKYIFRLHE) [compound 357]", "n"],
  ["230 (WQPPRARI) [compound 230]", "y"],
  ["336 (GEFYFDLRLKGDK) [compound 336]", "n"],
  ["358 (GHRGPTGRPGKRGKQGQKGDS) [compound 358]", "y"],
  ["327 (VAEIDGIEL) [compound 327]", "y"],
  ["350 (SIGFRGDGQTC) [compound 350]", "y"],
  ["345 (TAGSCLRKFSTMFLF) [compound 345]", "n"],
  ["450 (TAGSCLRKFSCL) [compound 450]", "y"],
  ["367 (TDIPPCPHGWISLWK) [compound 367]", "n"],
  ["237 (KNSFMALYLSKG) [compound 237]", "n"],
  ["355 (FRHRNRKGY) [compound 355]", "y"],
  ["239 (KNSFMALYLSKGRLVFALG) [compound 239]", "n"],
  ["205 (AASIKVAVSADR) [compound 205]", "n"]
]}

###

# Test system: HeLa Cells
# Method notes: GFP plasmid transfection with DOTMA/DOPE plus surface ligand peptide, fluorescent plate reader (Example 1)
# Format: cell-based
# Experimental parameters: DOTMA/DOPE + peptide linked to R12 or K16; EF1Alpha eGFP plasmid; 42 hours
This listing pairs substances with measured Relative Fluorescence of Transfection of HeLa Cells (RF).
Endpoint name: Relative Fluorescence of Transfection of HeLa Cells (RF)

{"columns": ["Substance", "Measured result"],
 "data": [
  ["326 (RLVSYSGVLFFLK) [compound 326]", 18946],
  ["363 (LAGSCLARFSTM) [compound 363]", 2590],
  ["224 (KPDVRSYTITG) [compound 224]", 5559]
]}

###

# Tested on: Human Primary Fibroblast Cells
# Method notes: GFP plasmid transfection with DOTMA/DOPE plus plant virus movement protein derived peptides (Example 2)
# Type: cell-based
# Experimental parameters: Transfection Agent 1 μl, 42 hours
# Relative Fluorescence of Transfection of Human Primary Fibroblast Cells annotations
Endpoint name: Relative Fluorescence of Transfection of Human Primary Fibroblast Cells (Rf)

{"columns": ["Substance", "Measured result"],
 "data": [
  ["547 (SYVKTVPNRTRTYIKGGGGGRRRRRRRRRRRR) [compound 547]", 29141],
  ["543 (RRRRRRRRRRRRVDFSHVDYGKWERKPIRCASMSRLGLRG) [compound 543]", 30416],
  ["545 (KSVPNRTRTYIKLKRLRFKGAPYKAWRRRRRRRRRRRR) [compound 545]", 34309],
  ["544 (GVKRSYGAARGDDRRRPNVVAPYKAWRRRRRRRRRRRR) [compound 544]", 31368],
  ["541 (RRRRRRRRRRRRGKWERKPIRCAS) [compound 541]", 35030],
  ["542 (KKKKKKKKKKKKKKKKGKWERKPIRCAS) [compound 542]", 30818]
]}
